# System: SK-MEL-28
# test.summary: NCI tumour cell line growth inhibition, 48 h
Active and inactive are the calls of the source. Cut-off read from the data, not from the text of the source: active = GI50 up to about 1.1 µM and inactive = higher.

{"molecule": "C/C(CCn1[nH]c(=O)ccc1=O)=N\\NC(=O)C(N)=O", "GI50": "> 100 µM (inactive)"}
{"molecule": "CC(C)C1=C(O)C(=O)C2=C(C1=O)C(OC=O)C(O)C1C(C)(C)CCCC21C (stereo unspecified)", "GI50": "3.13 µM (inactive)"}
{"molecule": "COc1ccccc1N1CCN(S(=O)(=O)c2ccc(Cl)cc2)C1=N", "GI50": "75 µM (inactive)"}
{"molecule": "COc1ccc2c(c1)C(=O)C1CC(=O)CCC21 (stereo unspecified)", "GI50": "> 100 µM (inactive)"}
{"molecule": "OC1(c2ccc(Cl)cc2)c2ccc3ccccc3c2C2=N[C@H]3CCCC[C@@H]3N21 (stereo partly specified)", "GI50": "> 100 µM (inactive)"}
{"molecule": "Cc1ccc(CCCC(=O)O)cc1C", "GI50": "> 100 µM (inactive)"}

* * *

# System: PC-3
# test.summary: NCI tumour cell line growth inhibition, 48 h
Activity calls are given as the source filed them. Cut-off read from the data, not from the text of the source: active = GI50 up to about 1.1 µM and inactive = higher.
Possible outcomes: active, inactive

{"query.smiles": "c1ccc2c(c1)SC1=Nc3sc4ccccc4[n+]3CN12", "cat": "inactive"}
{"query.smiles": "Cc1cccc(Nc2cn(CCOc3ccccc3)c(=O)n(CCOc3ccccc3)c2=O)c1", "cat": "inactive"}
{"query.smiles": "O=C(O/N=c1/ccc(=O)/c(=N\\OC(=O)c2ccccc2)c1=O)c1ccccc1", "cat": "inactive"}
{"query.smiles": "COc1cccc(/C(CC(O)(C(F)(F)F)C(F)(F)F)=N\\N(C)C)c1", "cat": "inactive"}
{"query.smiles": "N=c1n(C(=O)N2CCCC2)c2cc(Cl)ccc2n1C1=NCCN1", "cat": "inactive"}
{"query.smiles": "CCOC(=O)c1[nH]c(Br)c(-c2ccc(Br)cc2)c1Br", "cat": "active"}

* * *

# GI50 listing for each entry below
# Tested on: SK-OV-3
# test.summary: NCI tumour cell line growth inhibition, 48 h
Activity calls are given as the source filed them. Cut-off read from the data, not from the text of the source: active = GI50 up to about 1.1 µM and inactive = higher.
measured.quantity: GI50

{"compound": "CN(C)/C=C/C(=O)c1cccc(C(=O)/C=C/N(C)C)n1", "recorded.measurement": "> 100 µM (inactive)"}
{"compound": "Brc1cc(CCOC2CCCCO2)c(-c2sccc2CCOC2CCCCO2)s1 (stereo unspecified)", "recorded.measurement": "> 69.2 µM (inactive)"}
{"compound": "O=C(c1ccsc1)c1cc2c(s1)C(=O)c1ccsc1C2=O", "recorded.measurement": "1.61 µM (inactive)"}
{"compound": "COC(=O)C1=C(O)CCCC(CCC(C)=O)=C1", "recorded.measurement": "> 100 µM (inactive)"}
{"compound": "O=C(C(Cl)Cl)N(O)c1ccccc1OCc1ccccc1", "recorded.measurement": "> 100 µM (inactive)"}
{"compound": "S=C(NN=C1NCCCN1)Nc1ccccc1", "recorded.measurement": "> 100 µM (inactive)"}

* * *

Each entry below carries its reported GI50.
# Tested on: XF498
# test.summary: NCI tumour cell line growth inhibition, 48 h
Active and inactive are the calls of the source. Cut-off read from the data, not from the text of the source: active = GI50 up to about 1.1 µM and inactive = higher.

{"compound": "COc1cc(C(C)c2cc3c(cc2OCCOCCOc2cc4c(cc2C(C)c2cc(OC)c(OC)c(OC)c2)OCO4)OCO3)cc(OC)c1OC (stereo not given)", "GI50": "> 10 µM (inactive)"}
{"compound": "O=C1C(CN2CCCCC2)CCCC1CN1CCCCC1 (stereo not given)", "GI50": "21.2 µM (inactive)"}
{"compound": "CC1=CC(=O)CC2(C)CC[C@@H]3C[C@]12OC3(C)C (stereo not given in full)", "GI50": "> 100 µM (inactive)"}
{"compound": "C[C@H](NS(=O)(=O)c1ccc(NC(=O)c2ccccc2)cc1)C(=O)O", "GI50": "> 100 µM (inactive)"}
{"compound": "COc1ccc(NC(=O)C(=O)NNC(=O)c2sc(NNC(C)=O)nc2C)c([N+](=O)[O-])c1", "GI50": "71.3 µM (inactive)"}
{"compound": "O=C(NC(Cc1ccc(Cl)cc1)C(=O)O)c1ccc(I)cc1 (stereo not given)", "GI50": "> 64.4 µM (inactive)"}
{"compound": "COC(=O)N/N=C(/CCC(=O)Nc1ccc(C)c(C)c1)CC(=O)C(C)(C)C", "GI50": "> 100 µM (inactive)"}
{"compound": "CCCCCCCCCCC(=O)CCCCCCC(=O)O", "GI50": "24.3 µM (inactive)"}
{"compound": "COC1=CC(=O)[C@@]2(C)C(C)[C@H](c3ccccc3)[C@H]2C1=O (stereo not given in full)", "GI50": "> 100 µM (inactive)"}
{"compound": "CC1=NN(C(=O)Cc2ccccc2)C(=O)/C1=C\\c1ccc([N+](=O)[O-])cc1", "GI50": "> 100 µM (inactive)"}

* * *

Parameter GI50: see the listing below.
# Test system: M14
# test.summary: NCI tumour cell line growth inhibition, 48 h
Activity calls are given as the source filed them. No stated cut-off is given here; in the data, active = GI50 up to about 1.1 µM and inactive = higher.

{"compound": "N#CCN1C(=O)c2cc([N+](=O)[O-])cc3cc([N+](=O)[O-])cc(c23)C1=O", "GI50": "17 µM (inactive)"}
{"compound": "O=C(O)CN1CCNCCN(CP(=O)(O)O)CC1", "GI50": "16.6 µM (inactive)"}
{"compound": "CCOc1ccc(C2Oc3c(cccc3OC)C=C2[N+](=O)[O-])cc1OCC (centres undefined)", "GI50": "2.38 µM (inactive)"}
{"compound": "Cc1c(C(=O)C/C(=N/NC(=O)c2ccccc2O)C(=O)Nc2ccccc2C(C)C)[n+]([O-])c2ccccc2[n+]1[O-]", "GI50": "31 µM (inactive)"}
{"compound": "CCOC(=O)C1(C#N)C(c2ccccc2)CC(O)(c2ccc(OC)cc2)C(C(=O)c2ccc(OC)cc2)C1c1ccccc1 (centres undefined)", "GI50": "> 100 µM (inactive)"}
{"compound": "C=CCCON(C(=O)OC(C)(C)C)c1ccccc1", "GI50": "> 100 µM (inactive)"}
{"compound": "CC(C)=CCC[C@@H](C)C1=C(O)C(=O)C(C)=C(Nc2ccccc2)C1=O", "GI50": "14.9 µM (inactive)"}
{"compound": "COC(=O)[C@]1(c2cc3ccccc3n2S(=O)(=O)c2ccccc2)CC2CN(C(C)=O)C1CC2=O (some centres undefined)", "GI50": "1.96 µM (inactive)"}
{"compound": "COc1cc(C)c(CC/C(C)=C/Cc2cc(O)ccc2O)c(C)c1C [PANICEIN A HYDROQUINONE]", "GI50": "> 25 µM (inactive)"}

* * *

# Test system: EKVX
# test.summary: NCI tumour cell line growth inhibition, 48 h
Calls of active or inactive are those of the source. No stated cut-off is given here; in the data, active = GI50 up to about 1.1 µM and inactive = higher.
Labels: class 1 for active, class 0 for inactive

{"compound": "O=C(NCCCN1CCN(CCCNC(=O)c2cc(-c3ccccc3)nc3ccccc23)CC1)c1cc(-c2ccccc2)nc2ccccc12", "measured.on": "EKVX", "cat": "class 0"}
{"compound": "O=C(O)CN1CCN2CCOCCN(CC1)CCN(CC(=O)O)CC2", "measured.on": "EKVX", "cat": "class 0"}
{"compound": "COC1=CC(=O)[C@@]2(C)C(C)[C@H](c3ccccc3)[C@H]2C1=O (stereo partly specified)", "measured.on": "EKVX", "cat": "class 0"}
{"compound": "O=c1oc2ccccc2c(Nc2ccc3c(c2)Sc2ccccc2O3)c1[N+](=O)[O-]", "measured.on": "EKVX", "cat": "class 0"}
{"compound": "C[C@]12CCC(N3CCCC3)CC1=CC[C@@H]1[C@@H]2CC[C@]2(C)C(O)[C@H](n3ccnc3)C[C@@H]12 (stereo partly specified)", "measured.on": "EKVX", "cat": "class 0"}
{"compound": "COc1cc2c(OC)c3cc(C)oc(=O)c3c(O)c2c(O)c1-c1c(OC)cc2c(OC)c3cc(C)oc(=O)c3c(O)c2c1O", "measured.on": "EKVX", "cat": "class 0"}
{"compound": "N#CC1CC2(C1)OCCS2 (stereo unspecified)", "measured.on": "EKVX", "cat": "class 0"}
{"compound": "O=C(NNCc1ccccc1O)c1ccccc1O", "measured.on": "EKVX", "cat": "class 0"}
{"compound": "C=C1C(=O)O[C@H]2C/C(C)=C/CC[C@]3(C)CCC[C@](C)(CC[C@@H]12)O3", "measured.on": "EKVX", "cat": "class 0"}
{"compound": "O=C(O)C1C2CC3CC2CC31 (stereo unspecified)", "measured.on": "EKVX", "cat": "class 0"}
{"compound": "CC1C(=O)OCC2=CCN3CCC(OC(=O)C(C)C1(C)O)C23 (stereo unspecified)", "measured.on": "EKVX", "cat": "class 0"}
{"compound": "CCOC(=O)C(C)c1nc2c(Cl)c3ncccc3cc2[nH]c1=O (stereo unspecified)", "measured.on": "EKVX", "cat": "class 0"}
{"compound": "CCN(CC)CCNc1n[n+]([O-])c2cc([N+](=O)[O-])ccc2[n+]1[O-]", "measured.on": "EKVX", "cat": "class 0"}
{"compound": "O=C1C(Cl)C(c2cc(Br)cc(Br)c2O)N1n1cnc2ccccc2c1=O (stereo unspecified)", "measured.on": "EKVX", "cat": "class 0"}
{"compound": "COC(=O)CCn1cnc2c(SC)ncnc21", "measured.on": "EKVX", "cat": "class 0"}
{"compound": "Clc1cc2nnn(C3CCCCO3)c2cc1Cl (stereo unspecified)", "measured.on": "EKVX", "cat": "class 0"}
{"compound": "CCN1CCCC(C#N)(c2ccccc2)CC1 (stereo unspecified)", "measured.on": "EKVX", "cat": "class 0"}
{"compound": "CCN1C(=O)C(C)S/C1=N\\NC(=O)CSc1nc2ccccc2c(=O)n1CC (stereo unspecified)", "measured.on": "EKVX", "cat": "class 0"}
{"compound": "Cn1c2ccccc2c(=O)c2c(O)cc3c(c21)C=CC1(CCCCC1)O3", "measured.on": "EKVX", "cat": "class 0"}
{"compound": "CC(C)=CC(=O)OC1C2C(C)=CC(=O)C(O)C2(C)C2C3(O)OCC24C(CC(=O)OC14)C(C)C3O (stereo unspecified)", "measured.on": "EKVX", "cat": "class 1"}
{"compound": "CC1=NN(C(=O)Cc2ccccc2)C(=O)/C1=C\\c1ccc([N+](=O)[O-])cc1", "measured.on": "EKVX", "cat": "class 0"}
